FYI, the data here is from patent US20200347144A1.

Form field: average fluorescence intensity (one value per entry).
Target: T1, monkey 4-1BB on CHOK1 cells (monkey)
T1 construct: whole, on cells; also called CHOK1-c4-1BB
Assay: FACS, CHOK1-c4-1BB cells; Ab 0.00064 ug/ml
RECORDED_ENDPOINT: average fluorescence intensity (MFI)

11H10C9 (antibody, V domains shown) VH: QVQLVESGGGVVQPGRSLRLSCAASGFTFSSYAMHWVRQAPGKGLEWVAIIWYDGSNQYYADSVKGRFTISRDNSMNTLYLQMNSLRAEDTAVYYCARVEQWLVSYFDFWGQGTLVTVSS VL: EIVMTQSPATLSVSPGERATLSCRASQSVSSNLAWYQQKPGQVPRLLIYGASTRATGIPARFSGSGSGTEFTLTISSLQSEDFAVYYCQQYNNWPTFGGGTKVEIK    3.7
52F4G2 (antibody, V domains shown) VH: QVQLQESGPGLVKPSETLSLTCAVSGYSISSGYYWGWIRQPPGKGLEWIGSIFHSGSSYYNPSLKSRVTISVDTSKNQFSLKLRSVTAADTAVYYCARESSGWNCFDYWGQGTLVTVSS VL: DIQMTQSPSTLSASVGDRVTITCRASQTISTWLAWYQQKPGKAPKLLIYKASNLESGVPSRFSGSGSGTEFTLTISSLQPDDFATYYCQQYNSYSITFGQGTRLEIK    4.5
113F6C6 (antibody, V domains shown, also called 4-1BB fully human antibody 113F6C6; 113F6F6) VH: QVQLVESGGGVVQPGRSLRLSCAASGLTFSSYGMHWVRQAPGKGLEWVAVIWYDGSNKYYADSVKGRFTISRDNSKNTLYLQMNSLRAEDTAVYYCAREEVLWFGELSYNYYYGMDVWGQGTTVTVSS VL: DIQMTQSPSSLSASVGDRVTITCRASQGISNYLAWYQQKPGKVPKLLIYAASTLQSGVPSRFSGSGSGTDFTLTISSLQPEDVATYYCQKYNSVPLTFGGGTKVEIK    5.5
